System: DU-145
Assay: NCI tumour cell line growth inhibition, 48 h
Activity calls are given as the source filed them. Cut-off read from the data, not from the text of the source: active = GI50 up to about 1.1 µM and inactive = higher.
Hello, when you answer, please use one of the following outcomes: active, inactive

Please review the following examples before continuing.
COc1ccc(-[n+]2nc(S(=O)(=O)O)c(/C=C/c3ccc(N(C)C)cc3)cc2C#N)cc1; inactive
CN(C)/C=N/c1ccc2c3c(cccc13)-c1ccccc1-2; inactive
O=C1NC(N2CCCCC2)=N/C1=C\c1ccccc1; inactive

Query string: GET /call?item= `COC(=O)/C=C1/OC(c2ccccc2)=C(Br)C1=O` returns the recorded outcome of this test.
Result string: inactive

Query string: Another compound to check: `O=C(c1ccc(Cl)cc1Cl)N(Cc1cccnc1)C(=S)N(Cc1cccnc1)C(=O)c1ccc(Cl)cc1Cl`
Result string: inactive

Query string: Would you mind doing `COc1cc2c(cc1OS(C)(=O)=O)N=C[C@@H]1CCCN1C2=O` as well?
Result string: inactive

Query string: Another compound to check: `CCn1c2ccccc2c2ccc(C3C(C(=O)OC)=C(C)NC(C)=C3C(=O)OC)cc21`
Result string: inactive

Query string: // query: `COC(=O)/C(=C\C(=O)c1ccc(Br)cc1)NN=C(c1ccccc1)c1ccccc1`
Result string: inactive

Query string: Same thing, different compound: `Cc1ccccc1Nc1nc2c(s1)C(=O)c1ccccc1C2=O`
Result string: inactive

Query string: Moving on to `CCSCCCC(=O)O`
Result string: inactive

Query string: Same question for `COc1ccc(-c2c(N)n(-c3cccc(C(=O)O)c3)c(=O)c3cc([N+](=O)[O-])ccc23)cc1` please.
Result string: inactive

Query string: Would you mind doing `CC(C)(C)/N=c1/n(C(C)(C)C)oc(=O)n1-c1ccccc1` as well?
Result string: inactive

Query string: // repeat for `N/C(=N\Nc1nc2cc([N+](=O)[O-])ccc2o1)c1ccccn1` and report
Result string: active

Query string: // query: `COc1cccc2cc(C(=O)NC34CC5CC(CC(C5)C3)C4)c(=N)oc12`
Result string: inactive

Query string: # repeat for `Cn1c2c(c3c(=O)[nH]ncc31)Cc1ccccc1-2`
Result string: inactive

Query string: Would you mind doing `CN(CC(=O)Nc1ccccc1C(=O)O)c1ccccc1` as well?
Result string: inactive

Query string: Queued: `CCOC(=O)c1c(Nc2ccccc2)sc2cccnc12`
Result string: inactive

Query string: Cool, now C=C1CCCC2[C@](C)(CC3=C(Cl)C(=O)C=C(OC)C3=O)C(C)CC[C@]12C (some centres not stated)
Result string: inactive

Query string: Let us now turn to `Cc1c(NC(=S)NN)c(=O)n(-c2ccccc2)n1C`
Result string: inactive
